Each recorded value in this set is attributed to ChEMBL document CHEMBL1135905.

- ASSAY_TARGET: Adenosine receptor A2a (Rattus norvegicus, UniProt P30543)
- Sequence (P30543 whole entry): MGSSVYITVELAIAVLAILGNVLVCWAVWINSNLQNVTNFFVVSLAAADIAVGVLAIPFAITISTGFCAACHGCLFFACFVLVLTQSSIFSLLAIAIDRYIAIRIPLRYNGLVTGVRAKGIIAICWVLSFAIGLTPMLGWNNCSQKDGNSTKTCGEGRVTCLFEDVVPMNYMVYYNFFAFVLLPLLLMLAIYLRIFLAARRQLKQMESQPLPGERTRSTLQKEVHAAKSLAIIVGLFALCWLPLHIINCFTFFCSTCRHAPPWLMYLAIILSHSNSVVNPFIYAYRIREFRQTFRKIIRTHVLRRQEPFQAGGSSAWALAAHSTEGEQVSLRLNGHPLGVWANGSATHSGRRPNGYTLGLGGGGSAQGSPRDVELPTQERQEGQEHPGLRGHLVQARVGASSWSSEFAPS
- EXPERIMENTAL_PROTOCOL: Inhibition of [3H]MSX-2 binding to rat adenosine A2A receptor
pKi: −log10 of the molar value.
ENDPOINT: pKi

STRUCTURE_NOTATION: CCCCn1c(=O)[nH]c2nc(-c3ccccc3)[nH]c2c1=O
pKi: 6.19
//
STRUCTURE_NOTATION: CCCn1c(=O)c2nc(-c3ccc(Br)cc3)[nH]c2n(CCC)c1=O
pKi: 7.41
//
STRUCTURE_NOTATION: CCCn1c(=O)[nH]c2nc(-c3ccc(S(=O)(=O)O)cc3)[nH]c2c1=O
pKi: 4.62
//
STRUCTURE_NOTATION: O=c1[nH]c(=O)c2[nH]c(-c3ccccc3)nc2[nH]1
pKi: 4.68
//
STRUCTURE_NOTATION: CCCCn1c(=O)[nH]c2nc(-c3ccc(OCC(=O)Nc4ccc(C(=O)OC)cc4)cc3)[nH]c2c1=O
pKi: 6.32
//
STRUCTURE_NOTATION: CCCCn1c(=O)[nH]c2nc(-c3ccc(OCC(=O)N4CCN(Cc5ccccc5)CC4)cc3)[nH]c2c1=O
pKi: 6.26
//
STRUCTURE_NOTATION: CCCn1c(=O)c2nc(-c3ccc(I)cc3)[nH]c2n(CCC)c1=O
pKi: 7.85
//
STRUCTURE_NOTATION: CCCCn1c(=O)[nH]c2[nH]c(-c3ccc(OCC(=O)O)cc3)nc2c1=O
pKi: 5.73
//
STRUCTURE_NOTATION: Cn1c(=O)[nH]c2cc(-c3ccccc3)[nH]c2c1=O
pKi: 5.70
//
STRUCTURE_NOTATION: CCCn1c(=O)[nH]c2nc(-c3ccc(OCC(=O)NCCO)cc3)[nH]c2c1=O
pKi: 5.67

1: CCCn1c(=O)[nH]c2nc(-c3ccc(Br)cc3)[nH]c2c1=O
2: CCCCn1c(=O)[nH]c2nc(-c3ccc(S(=O)(=O)O)cc3)[nH]c2c1=O
[in] I'm curious whether 1 or 2 has the smaller pKi number. Which is it? // output: label of the selected item
[out] 2

a: CCCCn1c(=O)[nH]c2nc(-c3ccc(OCC(=O)N4CCN(c5ccccc5OC)CC4)cc3)[nH]c2c1=O
b: C#CCn1c(=O)[nH]c2nc(-c3ccc(Br)cc3)[nH]c2c1=O
[in] I'm curious whether a or b has the smaller pKi number. Which is it? // output: label of the selected item
[out] a

###

- ASSAY_TARGET: Adenosine A2 receptor (Homo sapiens) (UniProt P29275+P29274)
- EXPERIMENTAL_PROTOCOL: Selectivity ratio of the compound( A2A/A2B)
- Assay type: protein assay
ENDPOINT: Ratio

I: CCCn1c(=O)c2nc(-c3ccc(S(=O)(=O)O)cc3)[nH]c2n(CCC)c1=O
II: CCCn1c(=O)[nH]c2[nH]c(-c3ccccc3)nc2c1=O
[in] I'm curious whether I or II has the smaller Ratio number. Which is it? // output: label of the selected item
[out] I
(I: 6, II: 97)

###

- ASSAY_TARGET: Adenosine receptors; A1 & A2b (Homo sapiens) (UniProt P30542+P29275)
- EXPERIMENTAL_PROTOCOL: Selectivity ratio against adenosine A1 and A2B receptors
- Format: protein assay
ENDPOINT: Ratio

Please review the entries below; each comes with its answer.
STRUCTURE_NOTATION: CCCCn1c(=O)[nH]c2[nH]c(-c3ccc(OCC(=O)N4CCN(c5ccccc5OC)CC4)cc3)nc2c1=O
ASSAY_TARGET: Adenosine receptors; A1 & A2b (Homo sapiens) (UniProt P30542+P29275)
Ratio: 20

STRUCTURE_NOTATION: CCCn1c(=O)[nH]c2cc(-c3ccccc3)[nH]c2c1=O
ASSAY_TARGET: Adenosine receptors; A1 & A2b (Homo sapiens) (UniProt P30542+P29275)
Ratio: 1

STRUCTURE_NOTATION: CCCn1c(=O)[nH]c2[nH]c(-c3ccc4cc(C(=O)O)ccc4c3)nc2c1=O
ASSAY_TARGET: Adenosine receptors; A1 & A2b (Homo sapiens) (UniProt P30542+P29275)
Ratio: 8

STRUCTURE_NOTATION: CCCCn1c(=O)[nH]c2[nH]c(-c3ccc(OCC(=O)N4CCN(c5ccccc5)CC4)cc3)nc2c1=O
ASSAY_TARGET: Adenosine receptors; A1 & A2b (Homo sapiens) (UniProt P30542+P29275)
Ratio: 1

STRUCTURE_NOTATION: CCCCn1c(=O)[nH]c2[nH]c(-c3ccc(OCC(=O)N4CCN(C(=O)OCc5ccccc5)CC4)cc3)nc2c1=O
ASSAY_TARGET: Adenosine receptors; A1 & A2b (Homo sapiens) (UniProt P30542+P29275)
Ratio: 5

A: O=c1[nH]c(=O)c2[nH]c(-c3ccccc3)nc2[nH]1
B: Cn1c(=O)[nH]c2cc(-c3ccccc3)[nH]c2c1=O
[in] Name the one with the greater Ratio value, either A or B as given. // output: label of the selected item
[out] A
